# Test system: 254851-301-R-J1-PDC spheroids, viability % test/control;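 note: spheroids exposed to drugs for seven days before viability readout; 100% = DMSO vehicle control viability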
# assay_comment: Anticancer human tumor 254851-301-R-J1-PDC patient-derived colon carcinoma cell line growth inhibition [TAK]
# test_settings: second compound 0.949 µM; first compound 0.00316 µM; active compounds read low; spheroids with HUVEC and MSC
Field: viability, T/C. Provide a value for each of the compounds that follow.
Numeric answer only, unit % assumed.

Request: Which viability, T/C reading was recorded for the compound CC(C)CC(NC(=O)CNC(=O)c1cc(Cl)ccc1Cl)B1OC(=O)CC(CC(=O)O)(C(=O)O)O1 (stereo not given) + CC(C)NCC(C(=O)N1CCN(c2ncnc3c2C(C)CC3O)CC1)c1ccc(Cl)cc1 ?
Result: 95.3

Request: Which viability, T/C reading was recorded for the compound COc1c(OCCCN2CCOCC2)ccc2c3n(c(=NC(=O)c4cnc(N)nc4)nc12)CCN3 + CC(C)NCC(C(=O)N1CCN(c2ncnc3c2C(C)CC3O)CC1)c1ccc(Cl)cc1 ?
Result: 104

Request: Which viability, T/C reading was recorded for the compound COC1CC2CCC(C)C(O)(O2)C(=O)C(=O)N2CCCCC2C(=O)OC(C(C)CC2CCC(OCCO)C(OC)C2)CC(=O)C(C)C=C(C)C(O)C(OC)C(=O)C(C)CC(C)C=CC=CC=C1C (stereo not given) + CC(C)NCC(C(=O)N1CCN(c2ncnc3c2C(C)CC3O)CC1)c1ccc(Cl)cc1 ?
Result: 100

Request: Which viability, T/C reading was recorded for the compound CC(C)CC(NC(=O)C(Cc1ccccc1)NC(=O)c1cnccn1)B(O)O (stereo not given) + CC(C)NCC(C(=O)N1CCN(c2ncnc3c2C(C)CC3O)CC1)c1ccc(Cl)cc1 ?
Result: 103

Request: Which viability, T/C reading was recorded for the compound CC(C)n1nc(-c2ccc3oc(N)nc3c2)c2c(N)ncnc21 + CC(C)NCC(C(=O)N1CCN(c2ncnc3c2C(C)CC3O)CC1)c1ccc(Cl)cc1 ?
Result: 94.7
